- TARGET: T1, Human TNFR2 expressed on cells (CHO-hTNFR2 cells) (human, UniProt P20333 23-461)
- T1 construct: also called CHO cells overexpressing human TNFR2; human TNFR2 reporter cells (HEK293)
- T1 sequence: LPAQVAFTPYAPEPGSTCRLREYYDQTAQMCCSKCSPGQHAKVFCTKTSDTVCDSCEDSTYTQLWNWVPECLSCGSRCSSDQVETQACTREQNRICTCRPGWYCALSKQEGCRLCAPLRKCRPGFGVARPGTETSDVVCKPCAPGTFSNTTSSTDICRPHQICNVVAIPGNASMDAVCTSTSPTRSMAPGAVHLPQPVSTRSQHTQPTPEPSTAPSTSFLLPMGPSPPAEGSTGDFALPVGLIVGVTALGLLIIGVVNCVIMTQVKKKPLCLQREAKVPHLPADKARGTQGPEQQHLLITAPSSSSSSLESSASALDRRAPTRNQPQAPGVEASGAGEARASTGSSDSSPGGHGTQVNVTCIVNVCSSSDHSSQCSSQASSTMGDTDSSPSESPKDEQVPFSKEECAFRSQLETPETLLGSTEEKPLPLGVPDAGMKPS
- ASSAY_NAME: flow cytometry; soluble scFv inhibiting TNF (1 nM) binding to CHO-hTNFR2 cells (FIG. 3)
READOUT_KIND: IC50 (nM)

>  <BINDER>
UC7 (9-1B5) scFv (scFv, Soluble scFv) scFv: QVQLVQSGAEVKKPGSSVKVSCKASGDTFSSYGVSWVRQAPGQGLEWMGRIVPVFGIANYAQKFQGRVTITADESTSTAYMELSSLRSEDTAVYYCARQSPYVTYSSYYFDYWGQGTLVTVSSASSGGSTSGSGKPGSGEGSSGSAREIVLTQSPGTLSLSPGERATLSCRASQSVSNNFLAWYQQKPGQAPRLLIYDASTRATGIPDRFSGSGSGTDFTLTISRLEPEDFAVYYCQQYGSWPITFGQGTKVEIKR

>  <MEASURED>
25.6

$$$$
